TESTED SYSTEM: Glutamate NMDA receptor; Grin1/Grin2b (Rattus norvegicus, UniProt P35439+Q00960)
PROTOCOL DESCRIPTION: Inhibition of NMDA response at NR1A/2B receptor expressed in Xenopus oocytes
Assay type: cell-based, Oocyte
Sequence (Q00960 whole entry, other chains not shown): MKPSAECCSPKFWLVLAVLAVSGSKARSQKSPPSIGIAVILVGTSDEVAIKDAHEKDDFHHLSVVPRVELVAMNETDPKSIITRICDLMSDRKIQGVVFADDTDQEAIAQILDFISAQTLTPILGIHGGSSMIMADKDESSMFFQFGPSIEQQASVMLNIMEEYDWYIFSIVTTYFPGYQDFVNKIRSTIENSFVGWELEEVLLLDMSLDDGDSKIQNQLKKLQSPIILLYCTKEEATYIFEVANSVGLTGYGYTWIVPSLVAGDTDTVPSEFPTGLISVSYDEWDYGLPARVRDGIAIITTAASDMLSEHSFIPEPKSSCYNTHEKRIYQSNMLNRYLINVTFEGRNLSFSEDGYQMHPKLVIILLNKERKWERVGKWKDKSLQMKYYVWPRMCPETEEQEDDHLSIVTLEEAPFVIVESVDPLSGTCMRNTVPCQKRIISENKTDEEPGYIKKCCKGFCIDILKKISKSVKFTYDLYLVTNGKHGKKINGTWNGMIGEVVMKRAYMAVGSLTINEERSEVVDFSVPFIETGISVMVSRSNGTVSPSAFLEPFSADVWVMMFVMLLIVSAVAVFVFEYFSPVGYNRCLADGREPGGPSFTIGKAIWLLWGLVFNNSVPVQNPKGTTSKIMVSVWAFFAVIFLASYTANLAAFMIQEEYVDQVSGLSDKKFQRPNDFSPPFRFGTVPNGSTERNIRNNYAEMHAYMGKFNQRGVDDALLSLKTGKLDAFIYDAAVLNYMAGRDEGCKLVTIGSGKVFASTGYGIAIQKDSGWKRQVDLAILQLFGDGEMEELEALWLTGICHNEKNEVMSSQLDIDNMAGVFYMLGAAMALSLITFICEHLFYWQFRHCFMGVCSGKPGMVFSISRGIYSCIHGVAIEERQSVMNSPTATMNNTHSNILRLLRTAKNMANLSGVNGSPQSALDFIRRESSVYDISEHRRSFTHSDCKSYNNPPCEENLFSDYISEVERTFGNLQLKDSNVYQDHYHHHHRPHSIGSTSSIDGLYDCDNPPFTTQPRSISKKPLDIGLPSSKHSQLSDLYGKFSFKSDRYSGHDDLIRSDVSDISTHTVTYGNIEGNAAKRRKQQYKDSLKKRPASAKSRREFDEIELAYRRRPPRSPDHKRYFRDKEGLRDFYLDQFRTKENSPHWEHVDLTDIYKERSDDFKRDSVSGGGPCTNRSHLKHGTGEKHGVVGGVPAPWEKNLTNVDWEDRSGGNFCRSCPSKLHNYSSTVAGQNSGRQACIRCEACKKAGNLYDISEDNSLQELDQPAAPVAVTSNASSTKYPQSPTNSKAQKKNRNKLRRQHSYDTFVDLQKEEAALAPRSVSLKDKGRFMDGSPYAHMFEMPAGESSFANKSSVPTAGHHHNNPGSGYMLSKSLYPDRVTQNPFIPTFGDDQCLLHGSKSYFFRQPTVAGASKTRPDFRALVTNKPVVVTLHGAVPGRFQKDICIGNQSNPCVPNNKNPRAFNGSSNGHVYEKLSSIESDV
List of IC50 values.
Param answer (str): number followed by unit.

*Q* Name the recorded IC50 for `C(#Cc1cn[nH]c1)CCN1CCC(Cc2ccccc2)CC1` .
*A* 74 nM

----------
TESTED SYSTEM: Glutamate NMDA receptor; Grin1/Grin2b (Rattus norvegicus, UniProt P35439+Q00960)
PROTOCOL DESCRIPTION: The compound was tested in vitro for activity against NR1A/2B sub type of NMDA receptor
Set-up: species or system frog
Sequence (Q00960 whole entry, looked up, other chains not shown): as the sequence (Q00960 whole entry, other chains not shown) above
REPORTED PROPERTY: pIC50
Quick note: pIC50 means taking -log10 of the concentration in moles per liter.

*Q* Provide value of pIC50 for this record tested with Glutamate NMDA receptor; Grin1/Grin2b (Rattus norvegicus, UniProt P35439+Q00960): `C(#Cc1cn[nH]c1)CN1CCC(Cc2ccccc2)CC1`
*A* 6.09

----------
Test system: Rattus norvegicus
PROTOCOL DESCRIPTION: Compound was tested in vivo for potentiation of L-DOPA effect in 6-hydroxydopamine-lesioned rat when administered per orally
Format: functional
RECORDED CONDITIONS: po, read-out: MED
REPORTED PROPERTY: minimal effective dose (mg/kg)
I only need the number, in mg/kg, no unit after it.

Clc1ccc(CC2CCN(CCC#Cc3cnc[nH]3)CC2)cc1 ... 10
C(#Cc1cnc[nH]1)CN1CCC(Cc2ccccc2)CC1 ... 10
C(#Cc1cc[nH]c1)CCN1CCC(Cc2ccccc2)CC1 ... 30
C(#Cc1cnc[nH]1)CCN1CCC(Cc2ccccc2)CC1 ... 3
C(#Cc1cn[nH]c1)CCN1CCC(Cc2ccccc2)CC1 ... 30

Attention now shifts to the item below.
*Q* Which minimal effective dose is listed for `Cc1ccc(CC2CCN(CCC#Cc3c[nH]cn3)CC2)cc1` ?
*A* 10

----------
TESTED SYSTEM: Glutamate receptor ionotropic, NMDA 2C (Rattus norvegicus, UniProt P35439+Q00961)
Sequence (Q00961 whole entry, one chain of several): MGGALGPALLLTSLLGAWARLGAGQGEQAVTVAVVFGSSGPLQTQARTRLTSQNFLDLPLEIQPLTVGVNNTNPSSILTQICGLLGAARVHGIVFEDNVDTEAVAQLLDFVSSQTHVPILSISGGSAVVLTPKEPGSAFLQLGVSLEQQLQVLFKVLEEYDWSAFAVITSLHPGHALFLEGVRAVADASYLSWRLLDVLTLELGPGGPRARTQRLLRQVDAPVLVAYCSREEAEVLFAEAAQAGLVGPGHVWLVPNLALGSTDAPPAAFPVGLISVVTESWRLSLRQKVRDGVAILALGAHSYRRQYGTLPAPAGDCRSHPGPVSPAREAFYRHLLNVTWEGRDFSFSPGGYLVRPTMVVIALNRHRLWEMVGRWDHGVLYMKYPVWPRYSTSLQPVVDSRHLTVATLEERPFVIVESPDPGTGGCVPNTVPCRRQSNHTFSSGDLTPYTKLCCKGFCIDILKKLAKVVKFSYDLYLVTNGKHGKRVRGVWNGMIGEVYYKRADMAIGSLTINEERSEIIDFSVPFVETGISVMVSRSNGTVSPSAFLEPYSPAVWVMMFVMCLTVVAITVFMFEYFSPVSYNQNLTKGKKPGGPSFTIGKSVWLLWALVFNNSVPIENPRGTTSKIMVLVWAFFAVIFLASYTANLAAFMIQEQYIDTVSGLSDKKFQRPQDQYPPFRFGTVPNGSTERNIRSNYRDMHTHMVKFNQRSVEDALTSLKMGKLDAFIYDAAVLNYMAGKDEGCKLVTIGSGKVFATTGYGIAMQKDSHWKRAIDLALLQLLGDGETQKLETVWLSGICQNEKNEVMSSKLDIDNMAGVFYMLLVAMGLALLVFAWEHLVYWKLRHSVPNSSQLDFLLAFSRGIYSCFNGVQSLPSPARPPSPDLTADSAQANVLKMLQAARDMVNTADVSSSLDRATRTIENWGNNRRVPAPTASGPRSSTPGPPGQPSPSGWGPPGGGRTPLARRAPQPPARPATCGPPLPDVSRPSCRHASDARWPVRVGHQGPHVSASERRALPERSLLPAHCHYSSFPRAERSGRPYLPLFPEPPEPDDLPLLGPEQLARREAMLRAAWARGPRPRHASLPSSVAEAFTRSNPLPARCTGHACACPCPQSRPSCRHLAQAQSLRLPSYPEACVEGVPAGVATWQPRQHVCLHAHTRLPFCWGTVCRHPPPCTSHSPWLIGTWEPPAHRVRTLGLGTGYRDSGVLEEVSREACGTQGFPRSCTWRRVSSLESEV
PROTOCOL DESCRIPTION: The compound was tested in vitro for activity against NR1A/2C sub type of NMDA receptor
Design: species or system frog
pIC50: −log10 of the molar value.
REPORTED PROPERTY: pIC50

*Q* Test system Glutamate receptor ionotropic, NMDA 2C (Rattus norvegicus, UniProt P35439+Q00961); read-out pIC50; what value for `C(#Cc1cn[nH]c1)CN1CCC(Cc2ccccc2)CC1` ?
*A* < 4.00

----------
TESTED SYSTEM: Glutamate receptor ionotropic, NMDA 2C (Rattus norvegicus, UniProt P35439+Q00961)
PROTOCOL DESCRIPTION: Compound was tested in vitro for inhibition of NMDA response at cloned NR1A/2C receptor expressed in Xenopus oocytes
Type: cell-based, frog, Oocyte
Item-by-item account of IC50
Note: unit µM is implicit; provide only the numeric part.

*Q* Record request: IC50 value, item `C(#Cc1cnc[nH]1)CCN1CCC(Cc2ccccc2)CC1`
*A* 70

*Q* Similarly, `C(#Cc1cnc[nH]1)CN1CCC(Cc2ccccc2)CC1` ?
*A* 34

*Q* Do the same for `C(#Cc1cnc[nH]1)CCN1CCC(c2ccccc2)CC1` please
*A* 5
